System: HEK293
protocol: Cytotoxic Profiling of Annotated Libraries Using Quantitative High-Throughput Screening (AID 1296008); also: nearly all actives have a fitted effect of over 60% in size; also: potency is read from the fitted curve at half-maximal effect
study_conditions: Five cell lines viability, CellTiter-Glo ATP luminescence, 48-72 h
Inconclusive results are not listed. Activity calls are given as the source filed them. Calls follow the shape of the dose curve; as a rule, active = well fitted inhibition curve with a large enough effect; inconclusive = small, poorly fitted or top-dose-only effect; inactive = flat fitted curve, though single readings scatter.
Can you tell me Potency for the items I'm about to list?

> print(dat)
                                   molecule          data.value
1  CCC(CC)C(=O)Nc1sc2c(c1C#N)CCC(C(C)(C)CC)C2 (configuration not stated)    23.1 µM (active)
2  NC[C@@](O)(c1ccc(Cl)cc1)c1ccc(-c2cn[nH]c2)cc1     5.8 µM (active)
3  O=C(c1ccc(/C=C/c2n[nH]c3ccccc23)cc1)N1CCNCC1    20.6 µM (active)
4         COc1ccc(N(C)c2nc(C)nc3ccccc23)cc1  0.0073 µM (active)
5  CC(=O)NC1=NN(C(C)=O)C(C)(c2ccccc2)S1 (configuration not stated)    4.11 µM (active)

Let's switch to this molecule now.
Give a short answer stating reported Potency for `FC(F)(F)c1ccc(Nc2nc(-c3c(C(F)(F)F)nc4ccccn34)cs2)cc1` .
0.326 µM (active)

----------
System: Tov-21-G
protocol: Primary qHTS to identify gynecologic anti-cancer compounds using libraries of approved drugs and bioactive compounds (AID 1345084); also: nearly all actives have a fitted effect of over 55% in size
study_conditions: Gynecologic cancer cell panel viability, ATPlite luminescence, 48 h; series mostly up to 57.5 µM
Results filed as inconclusive are left out. The source made the active and inactive calls. Calls follow the shape of the dose curve; as a rule, active = well fitted cell-killing curve with a large enough effect; inconclusive = small, poorly fitted or top-dose-only effect, or effect the other way; inactive = flat fitted curve, though single readings scatter.
Pick from True (active), False (inactive) when you respond.

For orientation, consider the following solved cases.
compound	subject_of_test	class
c1ccc(-c2ncc(CN3CCN(c4ncccn4)CC3)[nH]2)cc1	Tov-21-G	False
CC1(C)CC2C(C1)C(C)(O)C13CC1(COC3=O)C2O (stereo not drawn)	Tov-21-G	False
c1cn2cc(-c3ccc4cn[nH]c4c3)nc(Nc3ccc(N4CCOCC4)cc3)c2n1	Tov-21-G	True
CC(C)=CCC[C@](C)(O[C@@H]1O[C@H](CO)[C@@H](O)[C@H](O)[C@H]1O)[C@H]1CC[C@]2(C)[C@@H]1[C@H](O)CC1[C@@]3(C)CC[C@H](O)C(C)(C)C3[C@@H](O[C@@H]3O[C@H](CO)[C@@H](O)[C@H](O)[C@H]3O)C[C@]12C (stereo partly drawn)	Tov-21-G	False
Cc1cc(Nc2ncc3cc(-c4c(Cl)cccc4Cl)c(=O)n(C)c3n2)ccc1F	Tov-21-G	True

Called result for `CNC(=O)c1ccccc1Nc1nc(Nc2ccc(N3CCNCC3)cc2)ncc1Cl`
True

Called result for `COc1cc(N)c(Cl)cc1C(=O)NC[C@@H]1CCN2CCC[C@@H]12`
False

Called result for `COc1cc2c(cc1OC)CC(=O)N(CCCNC[C@H]1Cc3cc(OC)c(OC)cc31)CC2`
False

----------
protocol: Primary redox qHTS assay for identification of artifact compounds. (AID 1845223);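 also: 0% = DMSO and 100% = reference compound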
study_conditions: Amplex Red/HRP redox cycling with DTT, fluorescence; series mostly up to 53.8 µM
Inconclusive results are not listed. Calls of active or inactive are those of the source. The call rests on the fitted dose curve; in most records, active means well fitted activation curve with a large enough effect; inconclusive means small, poorly fitted or top-dose-only effect; inactive means flat fitted curve, though single readings scatter.
reported_property: redox activity (% of DA3003)

compound	reported_property	data_value
Cc1cc(O)c(-c2ccc([C@@H](C)CN(C)C)cc2)c2c1[nH]c(=O)c1sccc12	redox activity (% of DA3003)	inactive
OCCc1ccc(O[C@@H]2O[C@H](CO)[C@@H](O)[C@H](O)[C@H]2O)cc1	redox activity (% of DA3003)	inactive
CCC[C@@H]1O[C@@H]2C[C@H]3[C@@H]4CCC5=CC(=O)C=C[C@]5(C)[C@H]4[C@@H](O)C[C@]3(C)[C@]2(C(=O)CO)O1	redox activity (% of DA3003)	inactive
COC1CC(O[C@H]2CC[C@@]3(C)C(CCC4C3[C@H](OC(C)=O)[C@@H](OC(=O)/C=C/c3ccccc3)[C@]3(C)C(C(C)=O)CC[C@]43O)C2)OC(C)C1OC1CC(OC)C(OC2CC(OC)C(OC3OC(C)C(OC4OC(CO)C(O)C(O)C4O)C(OC)C3O)C(C)O2)C(C)O1 (stereo partly drawn)	redox activity (% of DA3003)	-6.18% [at 11.5 µM] (inactive)
Cc1cccc(S(=O)(=O)N2CCC[C@@H]2CCN2CCC(C)CC2)c1	redox activity (% of DA3003)	inactive
N#CC(c1ccnc(OCc2ccc(CN3CCOCC3)cc2)n1)c1nc2ccccc2s1 (stereo not drawn)	redox activity (% of DA3003)	inactive

The following compounds each have a reported value; give each one's redox activity (% of DA3003).
1. COc1cc(C(=O)NC2CCN(C)CC2)ccc1Nc1ncc2c(n1)N(C1CCCC1)CC(F)(F)C(=O)N2C
2. COc1cc(Nc2nc3ccccc3nc2NS(=O)(=O)c2ccc(NC(=O)c3ccc(OC)c(C)c3)cc2)cc(OC)c1
3. CC(C)(C(=O)NCC(F)(F)C(F)(F)F)C(=O)NC1C(=O)Nc2ccccc2-c2ccccc21 (stereo not drawn)
4. CN1C2CCC1CC(OC(=O)[C@H](CO)c1ccccc1)C2 (stereo partly drawn)
5. Cn1nnc(-c2ccc(-c3ccc(N4C[C@H](CO)OC4=O)cc3F)cn2)n1
6. COC(=O)CC1CC(c2ccc(O)cc2)=NO1 (stereo not drawn)

["inactive", "inactive", "inactive", "inactive", "inactive", "inactive"]

----------
protocol: P-glycoprotein substrates identified in KB-8-5-11 adenocarcinoma cell line, qHTS therapeutic library screen (AID 1346987); also: nearly all actives have a fitted effect of over 65% in size
study_conditions: KB-8-5-11 (P-gp overexpressing) viability, CellTiter-Glo, 72 h; series mostly up to 44.5 µM
Inconclusive results are not listed. Active and inactive are the calls of the source. The call rests on the fitted dose curve; in most records, active means well fitted inhibition curve with a large enough effect; inconclusive means small, poorly fitted or top-dose-only effect; inactive means flat fitted curve, though single readings scatter.
Pick from T (active), F (inactive) when you respond.

For orientation, consider the following solved cases.
> print(dat)
                                   compound  class
1  COc1c2c(c(C)c3c1C(=O)OC3)OC1(C)CC(O)C(C(C)(C)O)C(C)(CCC(=O)O)C1C2 (stereo not given)      F
2  CC1(c2nc3c(C(N)=O)cccc3[nH]2)CCCN1 (stereo not given)      F
3  CNS(=O)(=O)c1ccccc1Nc1nc(Nc2ccc(N3CCN(C)CC3)cc2OC)ncc1Cl      T
4  CC(=O)c1ccc(O[C@@H]2O[C@H](CO)[C@@H](O)[C@H](O)[C@H]2O)cc1      F

Please find the next compound below.
Called result for `Cc1ccc(C)c(OCCn2cc(C(=O)O)c3ccccc32)c1`
F

----------
System: NIH3T3
protocol: Cytotoxic Profiling of Annotated Libraries Using Quantitative High-Throughput Screening (AID 1296008); also: nearly all actives have a fitted effect of over 60% in size; as to max response: % is scaled to controls: 0 for no effect and ±100 for the full control effect
study_conditions: Five cell lines viability, CellTiter-Glo ATP luminescence, 48-72 h; active compounds read low
Description: Cell-based phenotypic screening is a commonly used approach to discover biological pathways, novel drug targets, chemical probes and high-quality hit-to-lead molecules. […] A pintool (Kalypsys) was used to transfer 23 nL of compound solution to the 1536-well assay plates. […] Plates were left at room temperature for 10 min before imaging the ATP-coupled luminescence using a ViewLux microplate imager (PerkinElmer, Waltham, MA).
Records with an inconclusive call do not appear.
Can you tell me max response for the items I'm about to list?
One number for each entry, in %.

Worked set:
molecule	subject_of_test	max response (%)
CCOCCOC(=O)/C=C/c1ccc(OC)cc1	NIH3T3	-3.67
CC(C)c1ccc2c(c1)C(=O)CC1[C@@](C)(C(=O)O)CCC[C@]21C (stereo not given in full)	NIH3T3	0.286
CC(=O)N[C@H]1[C@H](O[C@H]2CC[C@@]3(C)C(CC[C@]4(C)C3CC=C3[C@@H]5CC(C)(C)CC[C@]5(C(=O)OC5OCC(O)C(O)C5O)CC[C@]34C)C2(C)C)O[C@H](COC2OC(C)C(O)C(OC3OC(C)C(O)C(O)C3O)C2O)[C@@H](O)[C@@H]1O (stereo not given in full)	NIH3T3	3.74
CC(=O)O[C@H]1[C@H](O[C@H]2[C@@H]3C=CO[C@@H](O[C@@H]4O[C@H](CO)[C@@H](O)[C@H](O)[C@H]4O)[C@@H]3[C@@]3(CO)O[C@@H]23)O[C@@H](C)[C@H](OC(=O)/C=C/c2ccccc2)[C@H]1OC(=O)/C=C/c1ccccc1	NIH3T3	0.432

Give a short answer stating reported max response for `C[C@@H](O)[C@H](NC(=O)c1ccc(C#Cc2ccc(CN3CCOCC3)cc2)cc1)C(=O)NO` .
3.18

----------
Test system: Es-2
protocol: Primary qHTS to identify gynecologic anti-cancer compounds using libraries of approved drugs and bioactive compounds (AID 1345084); also: nearly all actives have a fitted effect of over 55% in size
study_conditions: Gynecologic cancer cell panel viability, ATPlite luminescence, 48 h; series mostly up to 57.5 µM
Results filed as inconclusive are left out. Active and inactive are the calls of the source. Calls follow the shape of the dose curve; as a rule, active = well fitted cell-killing curve with a large enough effect; inconclusive = small, poorly fitted or top-dose-only effect, or effect the other way; inactive = flat fitted curve, though single readings scatter.

compound	subject_of_test	outcome
CC1(C)CC[C@]2(C(=O)O[C@@H]3O[C@H](CO)[C@@H](O)[C@H](O)[C@H]3O)CC[C@]3(C)C(=CCC4[C@@]5(C)C[C@@H](O)[C@H](O)[C@](C)(C=O)C5CC[C@]43C)[C@@H]2[C@@H]1O (stereo partly drawn)	Es-2	inactive
COC(=O)C1=CO[C@@H](O[C@@H]2O[C@H](CO)[C@@H](O)[C@H](O)[C@H]2O)[C@@H]2C(CO)=CC[C@]12O	Es-2	inactive
Cc1cc(Nc2cc(N3CCN(C)CC3)nc(/C=C/c3ccccc3)n2)n[nH]1	Es-2	inactive
